All figures here come from the RNAGym collection of RNA variant scans (doi:10.7554/elife.90254).

B1: LINE1-full (parent)
chain: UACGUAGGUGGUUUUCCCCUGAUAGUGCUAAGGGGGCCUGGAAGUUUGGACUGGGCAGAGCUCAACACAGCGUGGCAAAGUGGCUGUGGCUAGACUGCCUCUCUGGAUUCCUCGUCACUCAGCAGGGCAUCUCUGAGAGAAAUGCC

Variants of: B1
Test: self-cleavage, relative activity (ratio to wild type); higher = more cleavage; in vitro, sequencing; the parent is a self-cleaving ribozyme
Property measured: self-cleavage
Give bare numbers.

sequence_change="C38A A69G" recorded_result=0.61
sequence_change="A64U U119C" recorded_result=0.61
sequence_change="G88A A138G" recorded_result=0.06

# map each variant to its self-cleavage
1. U46A G114C
2. A78G G135A
3. C28A U39A

Output:
1: 1.56; 2: 1.17; 3: 1.54

# map each variant to its self-cleavage
1. G70A A141G
2. A124C U143A
3. A43U U119C
4. U81C U143C
5. G70A A79G
6. A65G U134G
7. U29A A124G

Output:
1. 0.17
2. 1.24
3. 1.17
4. 1.61
5. 0.1
6. 0.03
7. 0.91

# map each variant to its self-cleavage
1. U20A U108G
2. U1C A138G

Output:
[0.53, 0.7]

# map each variant to its self-cleavage
1. U23C C56U
2. C19U A141U
3. A107U A138U
4. A78C A138G

Output:
1. 0.23
2. 1
3. 2.59
4. 1.84

# map each variant to its self-cleavage
1. A6U U73A
2. G72U U91A
3. A43G A59G
4. U23C U47C
5. A65C U81A
6. U26G A31U
7. U73G A121G
8. A24G U87A

Output:
1: 1.54; 2: 0.49; 3: 0.14; 4: 1.32; 5: 0.02; 6: 1.16; 7: 2.45; 8: 0.03

# map each variant to its self-cleavage
1. U132C C133A
2. A57U A79G
3. A31U U108C

Output:
[1.14, 0.06, 1.3]

# map each variant to its self-cleavage
1. A77U C123U
2. U20A A57U

Output:
[0.84, 0.11]

# map each variant to its self-cleavage
1. U91C A124C
2. U45A U132C
3. A6G U45C

Output:
[0.69, 1.93, 0.5]
